assay: AUC (0 to t) in ICR mouse at 10 mg/kg, ip measured upto 24 hrs by LC-MS/MS analysis; type: ADME, organism-based; conditions: in vivo
Property name: AUC(0-t) at 24 h (µg·h/mL)
Quick reminder: number only, in µg·h/mL, skip the unit.

Some compounds with known AUC(0-t) at 24 h results, for comparison:
[[record]]
compound = "c1ccc2c(CCC3NCCc4cc5c(cc43)OCO5)c[nH]c2c1 (stereo not drawn)"
unit = "µg·h/mL"
test_value = 7.64

[[record]]
compound = "COc1cc2c(cc1OC)C(CCc1c[nH]c3ccccc13)N(CC1CCOCC1)CC2 (stereo not drawn)"
unit = "µg·h/mL"
test_value = 0.609


Then there is this compound:
Input Fc1ccc2[nH]cc(CCC3c4cc5c(cc4CCN3CC3CCOCC3)OCO5)c2c1 (stereo not drawn) . Output AUC(0-t) at 24 h: 0.21
